Cited source for all entries: the RNAGym collection of RNA variant scans (doi:10.1073/pnas.2313332121)

Would you mind telling me the reported polymerase ribozyme fitness (log ratio) of each entry?
B1: TPR 5TU (parent)
chain: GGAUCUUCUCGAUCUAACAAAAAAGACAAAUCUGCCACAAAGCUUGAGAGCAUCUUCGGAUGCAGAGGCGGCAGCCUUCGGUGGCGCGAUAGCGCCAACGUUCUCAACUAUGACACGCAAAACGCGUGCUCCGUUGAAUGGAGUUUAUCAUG

# Variants of: B1
# protocol: polymerase ribozyme fitness, log enrichment relative to wild type (log ratio); higher = more active; in vitro selection for triplet polymerase activity
This sample holds only a part of the variants without activity.

For every record below, what is its polymerase ribozyme fitness (log ratio)?
1. G92A A107G
2. C79G G88C G92A C125G
3. C27U C38U A52U C85G G88U U102G
4. C32U G62A C76G G84U C116U G140A C149U
5. A17G A29U G67U G100A C123G C132G
6. G46A G68C G83C A147U
7. U53C U78G U127C U148C
8. A39U C93A C105G A113U C114G

[A]
≤ -4.2
≤ -4.2
≤ -4.2
≤ -4.2
≤ -4.2
≤ -4.2
≤ -4.2
≤ -4.2
